Relative to UNC0638 UNC Heavy values by entry
# experimental.target: G9a and GLP (Homo sapiens, UniProt Q96KQ7+Q9H9B1)
# Construct: endogenous in cells; host or cells: HEK 293T
# Sequence (Q96KQ7 2-1210 limits assumed): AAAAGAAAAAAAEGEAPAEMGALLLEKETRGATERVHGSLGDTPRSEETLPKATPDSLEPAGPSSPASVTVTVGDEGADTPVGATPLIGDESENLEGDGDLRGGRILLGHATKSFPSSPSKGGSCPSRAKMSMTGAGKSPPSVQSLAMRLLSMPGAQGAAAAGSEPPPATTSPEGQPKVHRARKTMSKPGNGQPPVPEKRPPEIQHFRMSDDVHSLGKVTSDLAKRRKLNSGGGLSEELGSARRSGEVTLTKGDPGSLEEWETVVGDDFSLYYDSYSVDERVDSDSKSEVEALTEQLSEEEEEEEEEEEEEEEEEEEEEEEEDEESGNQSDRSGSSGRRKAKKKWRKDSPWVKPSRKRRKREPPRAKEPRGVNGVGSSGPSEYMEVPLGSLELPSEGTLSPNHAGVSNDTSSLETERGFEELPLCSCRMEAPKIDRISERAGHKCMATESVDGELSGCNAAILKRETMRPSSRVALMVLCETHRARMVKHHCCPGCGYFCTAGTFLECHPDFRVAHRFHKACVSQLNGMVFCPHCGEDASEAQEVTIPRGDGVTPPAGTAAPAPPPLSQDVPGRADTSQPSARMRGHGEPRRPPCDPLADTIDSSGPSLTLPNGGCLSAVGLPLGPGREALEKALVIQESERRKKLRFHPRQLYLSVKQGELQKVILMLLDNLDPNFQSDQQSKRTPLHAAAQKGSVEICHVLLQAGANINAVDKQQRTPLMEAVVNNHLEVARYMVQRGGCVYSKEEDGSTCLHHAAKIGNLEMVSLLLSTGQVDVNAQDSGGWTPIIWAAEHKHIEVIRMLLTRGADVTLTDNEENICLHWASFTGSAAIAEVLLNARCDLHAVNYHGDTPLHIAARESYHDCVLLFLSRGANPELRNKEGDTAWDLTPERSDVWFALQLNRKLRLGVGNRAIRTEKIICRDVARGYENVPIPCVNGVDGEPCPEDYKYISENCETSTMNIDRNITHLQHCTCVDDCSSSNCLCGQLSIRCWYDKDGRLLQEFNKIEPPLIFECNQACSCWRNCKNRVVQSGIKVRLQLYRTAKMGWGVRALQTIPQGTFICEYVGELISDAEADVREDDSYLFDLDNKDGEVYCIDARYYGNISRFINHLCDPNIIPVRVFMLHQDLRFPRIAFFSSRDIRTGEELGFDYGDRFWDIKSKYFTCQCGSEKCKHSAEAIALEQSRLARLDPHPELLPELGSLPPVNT
# Sequence (Q9H9B1 2-1298 limits assumed): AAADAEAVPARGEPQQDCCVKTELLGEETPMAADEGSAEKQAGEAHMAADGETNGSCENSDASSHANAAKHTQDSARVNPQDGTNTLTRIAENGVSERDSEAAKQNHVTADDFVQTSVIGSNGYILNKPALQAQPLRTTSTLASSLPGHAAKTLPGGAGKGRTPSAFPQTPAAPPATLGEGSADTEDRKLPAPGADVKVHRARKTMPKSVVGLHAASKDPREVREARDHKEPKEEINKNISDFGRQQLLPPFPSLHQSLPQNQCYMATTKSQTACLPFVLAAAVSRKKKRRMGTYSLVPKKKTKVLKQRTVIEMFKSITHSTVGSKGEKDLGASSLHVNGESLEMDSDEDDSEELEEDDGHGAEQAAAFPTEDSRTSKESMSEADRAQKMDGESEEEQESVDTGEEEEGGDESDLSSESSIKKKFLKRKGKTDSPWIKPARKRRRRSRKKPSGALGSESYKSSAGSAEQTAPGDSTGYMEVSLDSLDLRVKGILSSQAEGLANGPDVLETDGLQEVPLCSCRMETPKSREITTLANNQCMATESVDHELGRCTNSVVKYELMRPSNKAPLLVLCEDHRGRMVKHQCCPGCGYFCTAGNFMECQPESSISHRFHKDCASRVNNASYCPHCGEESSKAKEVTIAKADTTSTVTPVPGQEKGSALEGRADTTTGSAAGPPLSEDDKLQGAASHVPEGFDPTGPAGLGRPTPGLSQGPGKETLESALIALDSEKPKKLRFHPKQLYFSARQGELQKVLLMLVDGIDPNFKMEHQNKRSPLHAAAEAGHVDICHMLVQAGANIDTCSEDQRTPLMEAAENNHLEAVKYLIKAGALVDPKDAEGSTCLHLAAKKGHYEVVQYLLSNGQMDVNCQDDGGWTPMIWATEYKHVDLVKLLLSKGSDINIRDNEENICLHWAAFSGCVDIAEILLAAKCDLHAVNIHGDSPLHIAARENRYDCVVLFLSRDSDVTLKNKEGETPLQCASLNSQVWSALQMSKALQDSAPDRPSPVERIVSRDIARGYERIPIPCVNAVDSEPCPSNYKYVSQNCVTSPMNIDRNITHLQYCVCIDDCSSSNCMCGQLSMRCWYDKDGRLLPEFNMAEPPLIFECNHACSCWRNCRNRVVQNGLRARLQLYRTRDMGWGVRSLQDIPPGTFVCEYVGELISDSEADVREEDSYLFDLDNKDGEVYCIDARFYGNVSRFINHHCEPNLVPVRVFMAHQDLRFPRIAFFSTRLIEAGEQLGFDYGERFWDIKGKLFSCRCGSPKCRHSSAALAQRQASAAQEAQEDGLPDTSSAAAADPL
# method.description: Triple SILAC pull-down after UNC0638 treatment of 293T cells, DMSO/UNC0638 ratio of protein captured by 3×MBT;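 further: mass spectrometry (Q-Exactive) SILAC quantitation, DMSO/UNC0638 ratio computed after subtracting 3×MBTD355N mutant pull-down background, only proteins with at least twofold 3×MBT over mutant signal considered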
# Type: cell-based
# experimental.context: SILAC ratio DMSO/UNC0638 of protein pulled down with 3xMBT; UNC0638 in heavy SILAC media

Examples with their reported Relative to UNC0638 UNC Heavy follow.
substance: TARDBP
meas.value: 0.18 log base 2
//
substance: SMARCA5
meas.value: 0.47 log base 2
//
substance: HNRNPU
meas.value: 0.22 log base 2

For record KHDRBS1 the listed Relative to UNC0638 UNC Heavy is 0.54 log base 2

For record HNRNPAB the listed Relative to UNC0638 UNC Heavy is 0.09 log base 2
